src = patent US10851098B2

Molecular target: human αVβ6 (Homo sapiens, UniProt P06756+P18564)
Sequence (P06756 31-992 limits assumed): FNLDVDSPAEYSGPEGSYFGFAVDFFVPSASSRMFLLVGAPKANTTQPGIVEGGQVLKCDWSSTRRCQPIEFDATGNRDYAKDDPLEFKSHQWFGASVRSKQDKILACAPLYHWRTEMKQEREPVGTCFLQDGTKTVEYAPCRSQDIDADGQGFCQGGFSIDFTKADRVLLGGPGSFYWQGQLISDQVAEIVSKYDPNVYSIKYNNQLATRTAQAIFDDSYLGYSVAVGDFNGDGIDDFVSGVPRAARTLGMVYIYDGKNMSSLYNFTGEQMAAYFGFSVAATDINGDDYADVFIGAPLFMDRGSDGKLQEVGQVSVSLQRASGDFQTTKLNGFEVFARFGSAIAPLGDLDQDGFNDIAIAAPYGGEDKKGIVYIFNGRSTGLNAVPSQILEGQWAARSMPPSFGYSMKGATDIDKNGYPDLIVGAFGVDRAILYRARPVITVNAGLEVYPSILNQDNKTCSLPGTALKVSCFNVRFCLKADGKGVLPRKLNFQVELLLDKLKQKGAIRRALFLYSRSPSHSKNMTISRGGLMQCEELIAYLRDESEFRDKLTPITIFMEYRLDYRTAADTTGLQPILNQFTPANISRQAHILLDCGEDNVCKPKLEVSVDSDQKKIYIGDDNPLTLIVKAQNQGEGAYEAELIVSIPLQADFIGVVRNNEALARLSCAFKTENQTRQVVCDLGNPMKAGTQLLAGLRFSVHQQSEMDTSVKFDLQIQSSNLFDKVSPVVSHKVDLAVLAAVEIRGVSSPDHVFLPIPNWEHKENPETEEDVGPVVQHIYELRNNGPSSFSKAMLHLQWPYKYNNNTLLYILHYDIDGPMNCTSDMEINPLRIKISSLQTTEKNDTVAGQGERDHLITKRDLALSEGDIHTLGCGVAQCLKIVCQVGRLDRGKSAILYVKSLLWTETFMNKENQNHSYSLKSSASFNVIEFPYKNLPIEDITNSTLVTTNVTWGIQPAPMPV
Sequence (P18564 22-707 limits assumed): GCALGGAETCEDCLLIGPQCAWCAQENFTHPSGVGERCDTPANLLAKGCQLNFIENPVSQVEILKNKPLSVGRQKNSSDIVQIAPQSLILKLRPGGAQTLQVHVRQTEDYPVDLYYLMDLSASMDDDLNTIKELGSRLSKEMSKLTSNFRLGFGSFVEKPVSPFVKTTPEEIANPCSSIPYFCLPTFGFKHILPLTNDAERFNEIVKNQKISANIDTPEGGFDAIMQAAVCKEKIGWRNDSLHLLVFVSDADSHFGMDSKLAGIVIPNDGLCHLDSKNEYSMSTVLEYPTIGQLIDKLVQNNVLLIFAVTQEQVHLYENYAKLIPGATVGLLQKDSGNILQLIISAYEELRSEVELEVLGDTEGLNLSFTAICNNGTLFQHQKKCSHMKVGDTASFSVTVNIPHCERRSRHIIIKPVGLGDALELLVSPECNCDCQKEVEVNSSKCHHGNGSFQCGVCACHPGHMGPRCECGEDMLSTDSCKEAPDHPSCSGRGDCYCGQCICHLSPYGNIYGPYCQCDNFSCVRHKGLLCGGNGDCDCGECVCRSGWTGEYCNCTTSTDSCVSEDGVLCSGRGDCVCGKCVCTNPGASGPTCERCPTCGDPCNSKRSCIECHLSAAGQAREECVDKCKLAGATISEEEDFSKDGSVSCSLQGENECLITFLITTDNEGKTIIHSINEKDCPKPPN
Assay: human αVβ6 HTRF binding assay
pIC50: −log10 of the molar value.
attribute measured: pIC50

Previously resolved entries follow.
COc1ccc([C@H](CC(=O)O)NC(=O)c2cn(CCc3ccc4c(n3)NCCC4)nc2C)cc1F
7.52
O=C(NC[C@H](NS(=O)(=O)Cc1cccc(C(F)(F)F)c1)C(=O)O)c1cnn(CCc2ccc3c(n2)NCCC3)c1
7.80
O=C(O)C[C@H](NC(=O)c1cnn(CCc2ccc3c(n2)NCCC3)n1)c1cc(Cl)cc(Cl)c1
8.15
O=C(O)C[C@H](NC(=O)c1cnn(CCc2ccc3c(n2)NCCC3)c1CO)c1cc(Cl)cc(Cl)c1
8.19
O=C(NC[C@H](NS(=O)(=O)Cc1ccc(F)cc1)C(=O)O)c1cnn(CCc2ccc3c(n2)NCCC3)c1
7.77
COc1ccc(C(CC(=O)O)NC(=O)c2cnn(CCc3ccc4c(n3)NCCC4)c2CO)cc1OC (stereo not drawn)
6.88

P. O=C(O)CC(NC(=O)c1cn(CCc2ccc3c(n2)NCCC3)nc1-c1ccccc1)c1ccc(Cl)c(Cl)c1 (stereo not drawn)
Q. CCS(=O)(=O)N[C@@H](CNC(=O)c1cnn(CCc2ccc3c(n2)NCCC3)c1)C(=O)O
Form: Entry with minimum pIC50 (choose one): P / Q Respond with the label that goes with your answer.
P

###

Molecular target: human αVβ6 (Homo sapiens, UniProt P06756+P18564)
Test: human αVβ6 HTRF binding assay
Excerpt: All binding assays used the HTRF (homogeneous time resolved fluorescence) technology from Cisbio International, therefore all assays are described as HTRF binding assays. The assay results for the Examples are listed above together with the characterization data. The HTRF binding assays are established for the following integrins: human αVβ6, human αVβ1, human αVβ3, human αVβ5, and human αVβ8. […]
attribute measured: IC50 (nM)

O=C(NCC(C(=O)O)c1ccccc1)c1cnn(CCc2ccc3c(n2)NCCC3)c1 (stereo not shown)
321

1. O=C(NC[C@H](NS(=O)(=O)Cc1ccc(C(F)(F)F)cc1)C(=O)O)c1cnn(CCc2ccc3c(n2)NCCC3)c1
2. CC(C)(C)OCc1nn(CCc2ccc3c(n2)NCCC3)cc1C(=O)NC(CC(=O)O)c1ccc(Cl)c(Cl)c1 (stereo not shown)
3. COCCS(=O)(=O)N[C@@H](CNC(=O)c1cnn(CCc2ccc3c(n2)NCCC3)c1)C(=O)O
# desc sort on IC50 across 3 compounds List the labels in the requested order.
2, 3, 1

###

Molecular target: human αVβ8 (Homo sapiens, UniProt P06756+P26012)
Sequence (P06756 31-992 limits assumed): as the sequence (P06756 31-992 limits assumed) above
Sequence (P26012 43-684 limits assumed): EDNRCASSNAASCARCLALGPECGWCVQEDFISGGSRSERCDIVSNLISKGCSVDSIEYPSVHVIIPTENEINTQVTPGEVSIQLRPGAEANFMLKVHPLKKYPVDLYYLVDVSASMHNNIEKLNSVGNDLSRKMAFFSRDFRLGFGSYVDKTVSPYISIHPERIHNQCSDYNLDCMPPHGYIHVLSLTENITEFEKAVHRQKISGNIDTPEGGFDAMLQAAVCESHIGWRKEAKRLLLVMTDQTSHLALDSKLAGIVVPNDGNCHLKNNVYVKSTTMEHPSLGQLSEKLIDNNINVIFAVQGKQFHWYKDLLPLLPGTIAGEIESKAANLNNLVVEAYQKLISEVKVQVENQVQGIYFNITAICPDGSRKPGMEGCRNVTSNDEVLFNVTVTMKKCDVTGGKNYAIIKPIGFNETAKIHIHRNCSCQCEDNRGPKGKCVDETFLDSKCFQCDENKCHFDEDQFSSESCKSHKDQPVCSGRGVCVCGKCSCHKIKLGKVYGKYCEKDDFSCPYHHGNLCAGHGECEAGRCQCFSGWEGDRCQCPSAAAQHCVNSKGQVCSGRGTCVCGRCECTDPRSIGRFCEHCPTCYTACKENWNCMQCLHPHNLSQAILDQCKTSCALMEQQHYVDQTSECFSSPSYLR
Assay: human αVβ8 HTRF binding assay
pIC50: −log10 of the molar value.
attribute measured: pIC50

Solved cases (3 shown):
Cc1cc(C)c(S(=O)(=O)N[C@@H](CNC(=O)c2ncn(CCc3ccc4c(n3)NCCC4)n2)C(=O)O)c(C)c1 [Example 123]
6.82
Cc1cc(C)c(S(=O)(=O)N[C@@H](CNC(=O)c2cnn(CCc3ccc4c(n3)NCCC4)n2)C(=O)O)c(C)c1 [Example 113]
7.24
O=C(N[C@@H](CNC(=O)c1cnn(CCc2ccc3c(n2)NCCC3)c1)C(=O)O)OCc1ccccc1 [Example 12]
7.31

1. O=C(N[C@H](CNC(=O)c1cn(CCc2ccc3c(n2)NCCC3)cn1)C(=O)O)OCc1ccccc1 [Example 121]
2. Cc1cc(C)c(S(=O)(=O)N[C@@H](CNC(=O)c2cnn(CCc3ccc4c(n3)NCCC4)c2)C(=O)O)c(C)c1 [Example 10]
When the recorded pIC50 values are compared, which is smaller: that of 1 or that of 2 ? Could you answer with the label of the item you picked?
1
(1: 6.61, 2: 7.85)

###

Molecular target: human αVβ6 (Homo sapiens, UniProt P06756+P18564)
Construct: purchased R & D systems 3817-AV
Assay: human αVβ6 HTRF binding assay
pIC50: −log10 of the molar value.
attribute measured: pIC50

Example compounds with recorded pIC50:
O=C(O)CC(NC(=O)c1cnn(CCc2ccc3c(n2)NCCC3)c1CO)c1ccc(Cl)c(Cl)c1 (centres unmarked) [Example 58]
7.40
CC(C)(C)OCc1nn(CCCc2ccc3c(n2)NCCC3)cc1C(=O)NC(CC(=O)O)c1cc(Cl)cc(Cl)c1 (centres unmarked) [Example 5]
6.80
Cc1cc(C)c(S(=O)(=O)N[C@@H](CNC(=O)c2cnn(CCc3ccc4c(n3)NCCC4)c2)C(=O)O)c(C)c1 [Example 10]
9.30

P. N[C@@H](CNC(=O)c1cnn(CCc2ccc3c(n2)NCCC3)c1)C(=O)O [Example 11]
Q. Cc1cc(C)c(S(=O)(=O)N[C@H](CNC(=O)c2cnn(CCc3cc4c(nc3C)NCCC4)c2)C(=O)O)c(C)c1 [Example 81]
R. O=C(NC[C@H](NS(=O)(=O)CCc1cccc2ccccc12)C(=O)O)c1cnn(CCc2ccc3c(n2)NCCC3)c1 [Example 139]
S. Cc1nc2c(cc1Cn1ncc(C(=O)N[C@@H](CC(=O)O)c3cc(Cl)cc(Cl)c3)n1)CCCN2 [Example 14]
Order each entry by recorded pIC50, climbing from the minimum. Your reply should list the labels following the order given in the request.
S, Q, P, R

###

Molecular target: human αVβ8 (Homo sapiens, UniProt P06756+P26012)
Assay: human αVβ8 HTRF binding assay
attribute measured: IC50 (nM)

Known IC50 results, listed for orientation:
Cc1cc(C)c(S(=O)(=O)N[C@@H](CNC(=O)c2ccn(CCc3ccc4c(n3)NCCC4)n2)C(=O)O)c(C)c1
115
Cc1cc(C)c(S(=O)(=O)N[C@@H](CNC(=O)c2cn(CCc3ccc4c(n3)NCCC4)nn2)C(=O)O)c(C)c1
63

A. CCCCOC(=O)N[C@@H](CNC(=O)c1cnn(CCc2ccc3c(n2)NCCC3)c1)C(=O)O
B. Cc1cc(C)c(S(=O)(=O)N[C@H](CNC(=O)c2cn(CCc3ccc4c(n3)NCCC4)cn2)C(=O)O)c(C)c1
Could you point out whether the larger IC50 belongs to A or to B ? Answer by stating the label of the chosen item.
B
(B: 156 nM, A: 86 nM)

###

Target: human αVβ6 (Homo sapiens, UniProt P06756+P18564)
Test: human αVβ6 HTRF binding assay
pIC50: −log10 of the molar value.
attribute measured: pIC50

O=C(O)CC(NC(=O)c1cnn(CCc2ccc3c(n2)NCCC3)c1CO)c1cc(Cl)cc(Cl)c1 (stereo not drawn)
7.66
O=C(O)C[C@H](NC(=O)c1cnn(CCCNC2=NCCN2)c1)c1cc(Cl)cc(Cl)c1
7.39
Cc1nn(CCc2ccc3c(n2)NCCC3)c(C)c1C(=O)NC(CC(=O)O)c1cc(Cl)cc(Cl)c1 (stereo not drawn)
6.56
COC(=O)C[C@H](NC(=O)c1cnn(CCc2ccc3c(n2)NCCC3)c1)c1cc(Br)cc(C(C)(C)C)c1
5.96
O=C(NC[C@H](NS(=O)(=O)Cc1cccc(Br)c1)C(=O)O)c1cnn(CCc2ccc3c(n2)NCCC3)c1
7.68
CN(C(=O)c1cnn(CCc2ccc3c(n2)NCCC3)c1)C(CC(=O)O)c1cc(Cl)cc(Cl)c1 (stereo not drawn)
8.12
O=C(O)C[C@H](NC(=O)c1cnn(CCCNc2ccccn2)c1)c1cc(Cl)cc(Cl)c1
7.20
CCCCCS(=O)(=O)N[C@@H](CNC(=O)c1cnn(CCc2ccc3c(n2)NCCC3)c1)C(=O)O
8.68
CC(C)(C)c1cc(Br)cc([C@H](CC(=O)O)NC(=O)c2cn(CCc3ccc4c(n3)NCCC4)nc2C(F)(F)F)c1
7.25
CC(C)(C)OCc1c(C(=O)NC(CC(=O)O)c2cccc(-n3cccc3)c2)cnn1CCc1ccc2c(n1)NCCC2 (stereo not drawn)
8.00

P. Cc1cc(C)n(-c2cccc(C(CC(=O)O)NC(=O)c3cnn(CCc4ccc5c(n4)NCCC5)c3CO)c2)n1 (stereo not drawn)
Q. CC(C)(C)OCc1nn(CCc2ccc3c(n2)NCCC3)cc1C(=O)NC(CC(=O)O)c1ccc(C(F)(F)F)cc1 (stereo not drawn)
Compare P and Q by numeric pIC50 and name the larger one. API: response body contains the label of the selected item.
P
(P: 7.80, Q: 5.98)

###

Target: human αVβ6 (Homo sapiens, UniProt P06756+P18564)
Test: human αVβ6 HTRF binding assay
Excerpt: All binding assays used the HTRF (homogeneous time resolved fluorescence) technology from Cisbio International, therefore all assays are described as HTRF binding assays. The assay results for the Examples are listed above together with the characterization data. The HTRF binding assays are established for the following integrins: human αVβ6, human αVβ1, human αVβ3, human αVβ5, and human αVβ8. […]
pIC50: −log10 of the molar value.
attribute measured: pIC50

Use these answered entries as a reference point.
Cc1ccc(CS(=O)(=O)N[C@@H](CNC(=O)c2cnn(CCc3ccc4c(n3)NCCC4)c2)C(=O)O)cc1 [Example 161]
7.82
Cc1cc(CS(=O)(=O)N[C@@H](CNC(=O)c2cnn(CCc3ccc4c(n3)NCCC4)c2)C(=O)O)no1 [Example 158]
7.54
COc1ccc([C@H](CC(=O)O)NC(=O)c2cn(CCc3ccc4c(n3)NCCC4)nc2COC(C)(C)C)cc1F [Example 1]
6.11
O=C(O)CC1(NC(=O)c2cnn(CCc3ccc4c(n3)NCCC4)c2)Cc2ccccc2C1 [Example 109]
5.19
Cc1cc(C)c(S(=O)(=O)N[C@@H](CNC(=O)c2cnn(CCCNC3=NCCN3)c2)C(=O)O)c(C)c1 [Example 171]
7.85

P. COCCOC(=O)N[C@@H](CNC(=O)c1cnn(CCc2ccc3c(n2)NCCC3)c1)C(=O)O [Example 149]
Q. O=C(NC[C@H](NS(=O)(=O)CCN1C(=O)c2ccccc2C1=O)C(=O)O)c1cnn(CCc2ccc3c(n2)NCCC3)c1 [Example 151]
Of P and Q , which one carries the higher reported pIC50? Please identify the chosen entry by its label.
Q
